test: protein stability index of a GFP-peptide fusion (GPS, HEK-293T) (PSI 1-6); higher = more stable; conditions: treatment: MLN4924 1 uM, 8 h; c terminus: a fixed tail appended;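 also: 24-mer peptide tiles fused after GFP, lentivirally expressed, FACS-sorted into six equal bins by GFP/DsRed ratio, decoded by Illumina sequencing, PSI is the read-weighted mean bin number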
Form field: protein stability index (one value per entry).

{"columns": ["ITEM SEQUENCE", "protein stability index"],
 "data": [
  ["RLLKTLETSRSHDLEAVVPQNGSE [ATP23]", 4.09],
  ["DVLENAFAPLLDEQYDLATKRVRQ [GOLPH3]", 3.52],
  ["TTVPEVEPPQDSHSRKTVLIKTIE [PRPH]", 4.6],
  ["ALEFQPQLVLVAAGFDALQGDPKG [HDAC6]", 3.11]
]}

Switching to the query record.
Entry RPKDTVMCYRVRWEEAAPGRAVEH [MYORG] — recorded protein stability index = 2.91

---

assay: protein stability index of a GFP-peptide fusion (GPS, HEK-293T) (PSI 1-6); higher = more stable; details: treatment: DMSO; c terminus: a fixed tail appended
protein stability index listing for selected sequences.

See these solved cases before continuing.
{"columns": ["ITEM SEQUENCE", "EXPERIMENTAL VALUE"],
 "data": [
  ["SNEFKESALTLACYKGHLEMVRFL [ANKRD17]", 2.21],
  ["RLLKTLETSRSHDLEAVVPQNGSE [ATP23]", 4],
  ["GSSETETEPPVALAPGPAPTRCLP [ESRRA]", 5.23],
  ["LETQAQVCQALAQVDGGANFSVDR [CPOX]", 4.85],
  ["HAQVVEELSNFKSQKVLGLNEDPL [ZBED1]", 4.34]
]}

Now consider the entry below.
Just so you know, measured protein stability index for APTPPSLSQRVMCNDLFKVNPFQL [TIAF1] came out at 2.11

---

Known protein stability index of a selection of sequences
experiment: protein stability index of a GFP-peptide fusion (GPS, HEK-293T) (PSI 1-6); higher = more stable; conditions: treatment: MLN4924 1 uM, 8 h; c terminus: a fixed tail appended
Output spec: single numeric token, no unit.

Guide cases for protein stability index, answers given:
{"columns": ["ITEM SEQUENCE", "EXPERIMENTAL VALUE"],
 "data": [
  ["EHYWEVRYEPDSKAFGVGVAYRSL [FSD1]", 2.25],
  ["PVRTTNKISKQFVAPADVRRLLSY [ZSWIM9]", 2.84],
  ["KTHSSPALSQGHVTGSKTTKDATG [PSD2]", 5.46],
  ["GTTVTFDDLMGILCKSVLEIERAI [FEM1C]", 2.14],
  ["KQIYNLIHLDPRTREGFTLLHLAV [FEM1B]", 2.67],
  ["EEIKFYELGEEAMEKFREDEGFIK [KCNA1]", 4.84],
  ["DLDAKIREALVLRSVRVRLLLSFW [PLD5]", 2.53],
  ["SYLREQMLNEPLVREIVKECSNIP [GAN]", 3.39],
  ["NSSQLLLRRHAGLLDGLARRVGIL [SCARA5]", 2.69],
  ["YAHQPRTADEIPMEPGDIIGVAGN [FUT8]", 4.36]
]}

Now take the following sequence into account.
Item: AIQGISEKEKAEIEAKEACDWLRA [DLC1] | protein stability index: 4.72

---

assay: protein stability index of a GFP-peptide fusion (GPS, HEK-293T) (PSI 1-6); higher = more stable; settings: treatment: MLN4924 1 uM, 8 h; c terminus: a fixed tail appended
Categorize each record by its protein stability index using bin 0 = under 3, bin 1 = from 3 up to 4, bin 2 = 4 and over

{"columns": ["ITEM SEQUENCE", "ASSIGNED CLASS"],
 "data": [
  ["FDVFSPKQDLVPGSPDDSHPKDGP [DLC1]", "bin 2"],
  ["AESFPGSQVMGSGRGSLSSGGQTS [PLEKHN1]", "bin 2"],
  ["SYNACGVLSHIMFDGPEAWGVCEP [ZER1]", "bin 0"],
  ["EPNRLETGEAGEELDLRLRLAQPS [RTN2]", "bin 2"],
  ["ENVDEASAAPGHPQDGSYPRQADH [KCNA1]", "bin 2"]
]}

Inquiry: Hey, which category is QKVAVYRALQAALAESGGSPDVLQ [TRADD] in, do you know?
Reply text: bin 0

Inquiry: Which band does TLEFENVQVLTMGNDTSPSEGTNL [HNF4A] fall in?
Reply text: bin 2

---

protein stability index overview
assay: protein stability index of a GFP-peptide fusion (GPS, HEK-293T) (PSI 1-6); higher = more stable; settings: treatment: MLN4924 1 uM, 8 h; c terminus: a fixed tail appended
# answer = number (no unit)

Look over these answered cases.
{"columns": ["ITEM SEQUENCE", "EXPERIMENTAL VALUE"],
 "data": [
  ["MAMTAGTTTTFPMSNHTRERVTVA [STK38L]", 3.28],
  ["YLHPNSYSCACLASGSVLRLVDAV [HDAC6]", 2.32],
  ["VQAPRWGNPRALSFVLSSLQLGEG [OAS1]", 2.24],
  ["EGKTKKGVLEAPDTQVNPVGSVSV [FBXO34]", 5.14],
  ["TEPEQRELKTKLTKLEAEIVTLRH [TPD52L3]", 4.35],
  ["SQAIDLLYWRDIKQTGIVFGSFLL [RTN1]", 3.01]
]}

Measured protein stability index of VLSREQSRRSYDDQLRSGSPPKSP [DNAJC4] : 5.45

Input RSLLRLRATRAGAAEEPGVRGLLA [C2CD2L] . Output protein stability index: 3.44

---

assay: protein stability index of a GFP-peptide fusion (GPS, HEK-293T) (PSI 1-6); higher = more stable; conditions: treatment: DMSO; c terminus: a fixed tail appended
Would you mind sorting the entries by protein stability index according to these classes? low (below 3), intermediate (3 to below 4), high (4 or more)

Field: example entries. Status: answers known.
{"columns": ["ITEM SEQUENCE", "ASSIGNED CLASS"],
 "data": [
  ["TCCESTQRSVSDVASGSTPAPALC [IRX6]", "high"],
  ["AGRIDREELCAQSARCVVSFNILV [PCDHGA10]", "low"],
  ["AIVDLISRQYDKFLTHFILMNDVI [FBXO33]", "intermediate"],
  ["SFPRNNISYLVLSMISMGLFSIAP [JAGN1]", "intermediate"]
]}

Inquiry: Could you place KPYAVMVFQTEQKNLFRLEMDMVV [N4BP2L1] in its proper category? Many thanks.
Reply text: low

Inquiry: Class (by measured protein stability index) for LQKKVEQLSRELSTLRNLFKQLPE [CEBPB]
Reply text: low

Inquiry: Category lookup for the sequence MRLNSTGEVPVLIHGENIICEATQ [GDAP1]
Reply text: intermediate

Inquiry: Which category does the recorded protein stability index put WQAKREEEEEEEEEAEAGEEAVPE [CHGA] in?
Reply text: high

Inquiry: Field: class (protein stability index) — entry: VVGGAMFFIGFTALVIMWQKHYVY [COX4I1]
Reply text: intermediate

Inquiry: Lab note: which band did QTNKPALRAVRQRSEFTLMAKRIG [STX5] land in?
Reply text: intermediate

Inquiry: Categorize the following entry: EGYEFCHNRKVLTIFSASNYYEVG [PPEF2]
Reply text: low

---

assay: protein stability index of a GFP-peptide fusion (GPS, HEK-293T) (PSI 1-6); higher = more stable; conditions: treatment: DMSO; c terminus: a fixed tail appended
Reported protein stability index values are given for each entry in this list.

Consider the following illustrative entries.
{"columns": ["ITEM SEQUENCE", "METRIC", "EXPERIMENTAL VALUE"],
 "data": [
  ["LNSMPKRLCLVCGDIASGYHYGVA [ESRRG]", "protein stability index", 2.48],
  ["KVYYEVIQLIKTNKKHIHSRSTLE [SMG5]", "protein stability index", 2.33]
]}

Shifting focus to the sequence that follows.
Reported protein stability index for ALGHLGNDDSADYQHFLQDCVDGL [DLC1] was 4.26

---

test: protein stability index of a GFP-peptide fusion (GPS, HEK-293T) (PSI 1-6); higher = more stable; conditions: treatment: DMSO; c terminus: a fixed tail appended
METRIC: protein stability index
When you answer, write just the number.

// solved cases for protein stability index follow
{"columns": ["ITEM SEQUENCE", "EXPERIMENTAL VALUE"],
 "data": [
  ["NVEDHINPKLPNISLDVLQPSFPE [POMT2]", 4.58],
  ["ASKGCQLGKTEQGFENMDFFTLDL [TRIM63]", 3.22]
]}

Item: THFNTAQGFRTVLELVINYQQLCI [OAS1] | protein stability index: 3.26

protein stability index reading for VVTTEHILVSVAAGVSLSTLEELL [PYCR3] : 3.04

The measured protein stability index associated with CSGVACLVKDNPQRSYFLRIFDIK [WASL] reads 2.16

Recorded result, TITTAAATSVTVPGAGVPSGSGGT [ZBTB22] , protein stability index: 4.9

The sequence listed as QEAEEPKARVLRSKSLCHDEIENL [CDC25B] has a reported protein stability index of 5.37

Record DFYREDEDEEEEEGGEGEKEGEGE [TRIM55] . Reported protein stability index: 5.57

Record summary for VQSLCAKHGIEYQSKPLLSAFADI [FADS1] : reported protein stability index = 2.31

For this sequence ( MRHEELLTKTFQGPAVVCGTPTSH [LYSMD4] ), measured protein stability index is 3.82
